Tested system: UniProtKB P35968
Sequence (P35968 whole entry): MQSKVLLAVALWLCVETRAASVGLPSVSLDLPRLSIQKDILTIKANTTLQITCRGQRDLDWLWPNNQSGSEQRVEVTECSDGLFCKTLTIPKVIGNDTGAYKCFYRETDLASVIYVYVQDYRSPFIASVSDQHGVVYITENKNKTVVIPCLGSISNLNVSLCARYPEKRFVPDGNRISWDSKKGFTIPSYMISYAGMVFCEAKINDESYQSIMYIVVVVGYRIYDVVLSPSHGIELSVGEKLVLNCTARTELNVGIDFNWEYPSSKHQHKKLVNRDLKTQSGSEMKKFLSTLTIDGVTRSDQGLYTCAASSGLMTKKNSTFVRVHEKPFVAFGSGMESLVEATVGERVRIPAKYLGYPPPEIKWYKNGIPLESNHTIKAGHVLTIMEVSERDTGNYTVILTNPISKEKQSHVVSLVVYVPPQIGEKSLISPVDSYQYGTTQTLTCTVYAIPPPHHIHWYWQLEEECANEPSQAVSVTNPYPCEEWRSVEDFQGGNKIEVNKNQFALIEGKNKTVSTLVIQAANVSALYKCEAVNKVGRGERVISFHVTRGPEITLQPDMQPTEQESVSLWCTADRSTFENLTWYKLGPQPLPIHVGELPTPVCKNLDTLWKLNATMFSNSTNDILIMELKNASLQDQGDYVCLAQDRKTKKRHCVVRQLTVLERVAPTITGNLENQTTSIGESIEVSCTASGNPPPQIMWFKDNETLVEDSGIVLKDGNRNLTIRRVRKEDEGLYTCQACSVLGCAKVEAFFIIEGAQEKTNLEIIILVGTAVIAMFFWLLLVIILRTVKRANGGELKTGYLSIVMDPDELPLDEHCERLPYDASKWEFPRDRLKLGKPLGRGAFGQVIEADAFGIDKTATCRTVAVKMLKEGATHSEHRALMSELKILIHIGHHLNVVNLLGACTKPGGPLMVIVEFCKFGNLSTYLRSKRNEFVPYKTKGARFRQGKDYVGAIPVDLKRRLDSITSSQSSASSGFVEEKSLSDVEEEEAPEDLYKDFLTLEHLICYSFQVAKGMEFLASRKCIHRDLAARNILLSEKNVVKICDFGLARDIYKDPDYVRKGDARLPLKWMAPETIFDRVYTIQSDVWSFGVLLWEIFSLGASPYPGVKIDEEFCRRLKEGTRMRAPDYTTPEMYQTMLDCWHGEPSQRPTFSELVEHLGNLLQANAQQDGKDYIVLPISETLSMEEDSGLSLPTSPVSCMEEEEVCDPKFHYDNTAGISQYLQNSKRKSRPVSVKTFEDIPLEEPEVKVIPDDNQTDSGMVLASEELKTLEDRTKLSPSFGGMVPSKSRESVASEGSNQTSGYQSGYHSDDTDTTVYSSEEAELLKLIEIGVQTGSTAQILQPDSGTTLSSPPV
Experiment notes: biochemical
Format: cell-based, Sf21
Description: Inhibition of recombinant human N-terminal His6-tagged KDR (790 to end residues) expressed in baculovirus infected Sf21 insect cells after 60 mins by ELISA
Give pIC50 for every item shown.
Quick note: pIC50 values are minus log10 of concentrations in mol/L.

Query: Tell me its pIC50 given `COc1ccc(C2=Nc3c(n[nH]c3C)Nc3nc(SC)ncc32)cc1` as the entry.
Response: 6.37

Query: Tell me its pIC50 given `CSc1ncc2c(n1)Nc1n[nH]c(C)c1N=C2c1cccc(F)c1` as the entry.
Response: 6.48

Query: Tell me its pIC50 given `COc1ccccc1C1=Nc2c(n[nH]c2C)Nc2nc(SC)ncc21` as the entry.
Response: 6.99

Query: Tell me its pIC50 given `Cc1ccc(C2=Nc3c(n[nH]c3C)Nc3nc(N4CCN(C)CC4)ncc32)cc1` as the entry.
Response: 7.61

Query: Tell me its pIC50 given `Cc1ccc(C2=Nc3c(n[nH]c3C)Nc3nc(N4CCOCC4)ncc32)cc1` as the entry.
Response: 7.67

Query: Tell me its pIC50 given `Cc1ccc(C2=Nc3c(n[nH]c3C)Nc3nc(NC(C)(C)C)ncc32)cc1` as the entry.
Response: 7.07

Query: Tell me its pIC50 given `CSc1ncc2c(n1)Nc1n[nH]c(C)c1N=C2c1ccccc1Cl` as the entry.
Response: 7.08

Query: Tell me its pIC50 given `CSc1ncc2c(n1)Nc1n[nH]c(C)c1N=C2c1ccccc1C(F)(F)F` as the entry.
Response: 6.69

Query: Tell me its pIC50 given `CSc1ncc2c(n1)Nc1n[nH]c(C)c1N=C2c1ccc(C)cc1` as the entry.
Response: 6.81

Query: Tell me its pIC50 given `CSc1ncc2c(n1)Nc1n[nH]c(C)c1N=C2c1ccccc1C` as the entry.
Response: 6.96

Query: Tell me its pIC50 given `CSc1ncc2c(n1)Nc1n[nH]c(C)c1N=C2c1ccc(C(F)(F)F)cc1` as the entry.
Response: 6.68

Query: Tell me its pIC50 given `CSc1ncc2c(n1)Nc1n[nH]c(C)c1N=C2c1cccc(Cl)c1` as the entry.
Response: 6.85

Query: Tell me its pIC50 given `CSc1ncc2c(n1)Nc1n[nH]c(C)c1N=C2c1ccc(Cl)cc1` as the entry.
Response: 6.50

Query: Tell me its pIC50 given `Cc1ccc(C2=Nc3c(n[nH]c3C)Nc3nc(N4CCCCC4)ncc32)cc1` as the entry.
Response: 7.52

Query: Tell me its pIC50 given `CSc1ncc2c(n1)Nc1n[nH]c(C)c1N=C2c1ccccc1` as the entry.
Response: 6.16

Query: Tell me its pIC50 given `CCN(CC)c1ncc2c(n1)Nc1n[nH]c(C)c1N=C2c1ccc(C)cc1` as the entry.
Response: 8.08

Query: Tell me its pIC50 given `CNc1ncc2c(n1)Nc1n[nH]c(C)c1N=C2c1ccc(C)cc1` as the entry.
Response: 6.70

Query: Tell me its pIC50 given `Cc1ccc(C2=Nc3c(n[nH]c3C)Nc3nc(NC(C)C)ncc32)cc1` as the entry.
Response: 7.52
